Data provenance is paper PMC9822270.

System Name: porcine brain tubulin (Sus scrofa, UniProt P02550+P02554)
Construct: The standard reaction mixture contains 95 μL of 4 mg.mL^−1 porcine brain tubulin; purchased Cytoskeleton, USA BK004P; host or cells: porcine brain (tissue-purified)
Sequence (P02550 whole entry): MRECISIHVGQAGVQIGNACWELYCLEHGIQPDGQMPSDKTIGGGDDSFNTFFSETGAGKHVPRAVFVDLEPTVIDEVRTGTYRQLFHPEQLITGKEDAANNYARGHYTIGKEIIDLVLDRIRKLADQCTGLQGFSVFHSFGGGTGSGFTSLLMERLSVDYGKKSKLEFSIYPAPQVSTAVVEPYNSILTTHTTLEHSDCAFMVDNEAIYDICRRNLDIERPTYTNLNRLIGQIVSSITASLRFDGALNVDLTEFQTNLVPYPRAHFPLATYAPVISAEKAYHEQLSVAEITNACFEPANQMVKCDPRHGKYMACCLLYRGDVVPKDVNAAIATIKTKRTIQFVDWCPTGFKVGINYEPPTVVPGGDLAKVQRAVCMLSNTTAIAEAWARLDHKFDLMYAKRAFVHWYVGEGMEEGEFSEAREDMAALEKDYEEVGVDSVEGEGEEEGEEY
Sequence (P02554 whole entry): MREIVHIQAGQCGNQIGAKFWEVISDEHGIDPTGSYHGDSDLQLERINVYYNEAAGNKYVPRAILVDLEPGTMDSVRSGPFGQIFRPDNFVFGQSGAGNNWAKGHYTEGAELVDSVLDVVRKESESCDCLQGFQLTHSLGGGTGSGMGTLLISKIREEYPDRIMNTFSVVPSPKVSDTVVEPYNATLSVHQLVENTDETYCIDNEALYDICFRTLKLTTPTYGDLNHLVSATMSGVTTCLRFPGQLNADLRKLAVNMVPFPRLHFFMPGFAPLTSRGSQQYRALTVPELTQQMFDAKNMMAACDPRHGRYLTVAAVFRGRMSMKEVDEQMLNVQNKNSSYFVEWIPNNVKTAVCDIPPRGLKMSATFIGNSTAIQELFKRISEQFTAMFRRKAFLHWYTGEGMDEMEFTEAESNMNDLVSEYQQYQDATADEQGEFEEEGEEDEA
Assay Overview: In vitro tubulin polymerization assay (turbidity at 340 nm)
Assay type: biochemical
Condition Notes: 10 µM compound; 37 °C, 90 min, turbidity 340 nm
This section presents compounds with their documented Lag Time values.

{"columns": ["Compound", "Unit Of Measurement", "Lag Time"],
 "data": [
  ["COC(=O)Nc1nc2ccc(C(=O)c3cccs3)cc2[nH]1 [nocodazole, reference compound]", "s", 935],
  ["Oc1ccc(/C=N/Nc2nc3ccccc3[nH]2)c(O)c1", "s", 1190],
  ["Oc1ccccc1/C=N/Nc1nc2ccccc2[nH]1", "s", 1390],
  ["COc1ccc(/C=N/Nc2nc3ccccc3[nH]2)c(O)c1", "s", 1295],
  ["COc1cccc(/C=N/Nc2nc3ccccc3[nH]2)c1O", "s", 1200],
  ["COc1cc(/C=N/Nc2nc3ccccc3[nH]2)cc(OC)c1", "s", 1090],
  ["CC(=O)O[C@H]1C(=O)[C@@]2(C)[C@H]([C@H](OC(=O)c3ccccc3)[C@]3(O)C[C@H](OC(=O)[C@H](O)[C@@H](NC(=O)c4ccccc4)c4ccccc4)C(C)=C1C3(C)C)[C@]1(OC(C)=O)CO[C@@H]1C[C@@H]2O [paclitaxel, reference compound]", "s", 151]
]}
